Test system: Mus musculus
Procedure Text: Neurotoxicity in ip dosed albino CF1 mouse assessed as time of peak effect by rotarod test
Type: toxicity, organism-based
Run Parameters: in vivo
Recorded measurements of Time, one per entry
Quantity Kind: Time (h)

{"Molecule": "COC[C@@H](NC(C)=O)C(=O)NCc1ccccc1 [LACOSAMIDE]", "Target Or Test System": "Mus musculus", "Value Units": "h", "Number": 0.25}
{"Molecule": "CC(C)[C@@H](N)C(=O)NCc1ccccc1OC(F)(F)F", "Target Or Test System": "Mus musculus", "Value Units": "h", "Number": 0.25}
{"Molecule": "CC(C)[C@@H](N)C(=O)Nc1ccccc1", "Target Or Test System": "Mus musculus", "Value Units": "h", "Number": 0.5}
{"Molecule": "CC(C)[C@@H](N)C(=O)NCCc1ccccc1F", "Target Or Test System": "Mus musculus", "Value Units": "h", "Number": 0.25}
{"Molecule": "CCC(C)C(=O)NCc1ccccc1 (racemic)", "Target Or Test System": "Mus musculus", "Value Units": "h", "Number": 0.25}
{"Molecule": "CC(C)[C@@H](N)C(=O)OCc1ccccc1", "Target Or Test System": "Mus musculus", "Value Units": "h", "Number": 0.5}
{"Molecule": "O=C1NC(=O)C(c2ccccc2)(c2ccccc2)N1", "Target Or Test System": "Mus musculus", "Value Units": "h", "Number": 0.25}
{"Molecule": "CC(C)[C@@H](N)C(=O)NCC1CCCCC1", "Target Or Test System": "Mus musculus", "Value Units": "h", "Number": 0.5}
{"Molecule": "CC(C)[C@H](C(=O)NCc1ccccc1)N(C)C", "Target Or Test System": "Mus musculus", "Value Units": "h", "Number": 0.5}
{"Molecule": "CCCC(CCC)C(=O)[O-].[Na+] [VALPROATE SODIUM]", "Target Or Test System": "Mus musculus", "Value Units": "h", "Number": 0.25}
{"Molecule": "CC(C)[C@@H](N)C(=S)NCc1ccccc1", "Target Or Test System": "Mus musculus", "Value Units": "h", "Number": 0.5}
{"Molecule": "CC(C)[C@@H](N)CNCc1ccccc1", "Target Or Test System": "Mus musculus", "Value Units": "h", "Number": 0.5}
{"Molecule": "CC[C@@H](O)C(=O)NCc1ccccc1", "Target Or Test System": "Mus musculus", "Value Units": "h", "Number": 0.5}
{"Molecule": "CC(C)[C@@H](N)C(=O)NCCc1cccc(F)c1", "Target Or Test System": "Mus musculus", "Value Units": "h", "Number": 0.25}
{"Molecule": "CC(C)[C@@H](N)C(=O)NCCc1ccccc1", "Target Or Test System": "Mus musculus", "Value Units": "h", "Number": 0.25}
{"Molecule": "CC(C)[C@@H](N)C(=O)NCCCCc1ccccc1", "Target Or Test System": "Mus musculus", "Value Units": "h", "Number": 0.25}
{"Molecule": "CCC1(c2ccccc2)C(=O)NC(=O)NC1=O", "Target Or Test System": "Mus musculus", "Value Units": "h", "Number": 0.5}
{"Molecule": "CC(C)[C@@H](N)C(=O)NCCCc1ccccc1", "Target Or Test System": "Mus musculus", "Value Units": "h", "Number": 0.25}
{"Molecule": "CC(C)[C@@H](N)C(=O)NCc1cccc(OC(F)(F)F)c1", "Target Or Test System": "Mus musculus", "Value Units": "h", "Number": 0.25}
{"Molecule": "CCCC(=O)NCc1ccccc1", "Target Or Test System": "Mus musculus", "Value Units": "h", "Number": 0.5}
{"Molecule": "CC[C@H](C)C(=O)NCc1ccccc1", "Target Or Test System": "Mus musculus", "Value Units": "h", "Number": 0.5}

Numbers sourced from ChEMBL document CHEMBL1833821.
